Below, each entry is listed alongside its reported pKi.
experimental_protocol: Displacement of [125I]DMIC from amyloid beta 1-42 aggregates
Design: species or system Homo sapiens
Note on pKi: it is the negative log10 of concentration, concentration in mol/L.

Solved cases (10 shown):
mol=CNc1ccc(C(=O)/C=C/c2ccc(I)cc2)cc1 experimental_result=7.62
mol=O=C(/C=C/c1cccs1)c1ccc(I)cc1 experimental_result=6.99
mol=O=C(/C=C/c1ccco1)c1ccc(I)cc1 experimental_result=6.04
mol=CN(C)c1ccc(/C=C/C(=O)c2ccc(I)cc2)s1 experimental_result=6.95
mol=CN(C)c1ccc(/C=C/C(=O)c2ccc(Br)o2)s1 experimental_result=5.58
mol=CNc1ccc(/C=C/C(=O)c2ccc(I)s2)cc1 experimental_result=7.85
mol=Nc1ccc(C(=O)/C=C/c2ccc(Br)s2)cc1 experimental_result=6.32
mol=CNc1ccc(C(=O)/C=C/c2ccc(Br)s2)cc1 experimental_result=6.70
mol=CN(C)c1ccc(C(=O)/C=C/c2ccc(I)cc2)cc1 experimental_result=7.88
mol=CN(C)c1ccc(/C=C/C(=O)c2ccc(Br)o2)cc1 experimental_result=6.90

So what does the record say about pKi for `O=C(/C=C/c1ccccc1)c1ccc(I)cc1` ?
6.82

What does the record list as pKi for `CN(C)c1ccc(/C=C/C(=O)c2ccc(I)s2)s1` ?
6.86

Data origin: ChEMBL document CHEMBL1149675
